# method_summary: yeast display, Sf9 membrane polyspecificity reagent, FACS + sequencing; frameworks hold sequencing errors

residue_string	polyreactivity (PSR sort gate)
QVQHVESGGGLVQAGGSLRLSCAASGFIFARNAMGWYRQARGKERELVAVISTRGRTYYADSVKGRFTFSRDNAKNTVYLQMNSLKPEDTAVYYCNADKVIGYDYWGQGTQVTVSS	high polyreactivity
QVQLVESGGGLVQAGGSLRLSCAASGRIFTIYAMGWYRQAPGKERELVARITRGTSTYADSVKGRFTISRDNAKNTVYLQMNSLKPEDTAVYYCAADPTDTSLGDYWGQGTQVTVSS	high polyreactivity
QVQLVESGGGLVQAGGSLRLSCAASGSSFEGYVLGWYRQAPGKERELVATISFSGGSTYYADSVMGRFTISRDNAKNTVYLQMNSLKPVETAVYFSGASVRYKFYSVVSVRSEYWGQGTQVTVST	low polyreactivity
QVQLVESGGGLVQAGGSLRLSCAASGGTFSYYAMGWYRQAPGKGELVAAISSGGSTNYADSVKGRFTISRDNAKNTVYLQMNSLKPEDTAVYYCAARYRFWGPYNYWGQGTQVTVSS	high polyreactivity
QVQLVESGGGLVQAGGSLRLSCAASGFTIISYTMGWYRQAPGKERELVAAIRGGGRTYYADSVKGRFTISRDNAKNTVYLQMNSQKPEDTAVYYCASRLRYGGHYDYWGQGTQVTVSS	high polyreactivity
QVQLVESGGGLVQAGGSLRLSCAASGSIFKGYAMGWYRQAPGKERELVAAITIDGSTYYADSVKGRFTISRDNAKNTVYLQMNSLKPEDTAVYYCAAVYLWYGSWPLHFAAYDYWGQGTQVTVSS	low polyreactivity
QVQLVESAGGLVQAGGRLRVSCAASGFTFTLYAMGWYRQEPGKERELVAAINRSGGRTYYADSVKGRFTISRDNAKNTVYLQKNSLKPEDTAVYYCNKYPWPNYYDGEYDYWGQGTQVTVSS	high polyreactivity
QVQLVESGGGIVQAGGSLRLSCAASGSTFNYNAMGWYRQAPGKERELVAAITRSGDSTYADSVKGRFTISRDNAKNTFYLQMNSLKPEYTAVYYCAKRYTHYSFRRFDYWGQGSQVTVSS	low polyreactivity
QVQRVESGGGLVQAGGSLRLTSAVSGTTFYIYAMGWYRQAPGKEREFVAAIDFSGSSTYADSVKGRFTISRDNAKNTVYLQMNSLKPEDTEVYYCAAYQIFQYDGPYDYWGQGTQVTVSS	low polyreactivity
QVQLVESGVGLVQAGGSLSLSCAASGITFPYVMGWYRQAPGKERELVAAISRTGTSTYYADSVKGRFTSSRDNAKNNVYLEMNTLKPEDTAVYYCAARTQTQVYPAYGYWGQGTQVTVSS	high polyreactivity
QVQLVESGVGLVQAGGSLRLSCAASVRIFLFYAMGGYRQAPVKERELVAAITSGGSTYYADSVKGRFTMSRDNAKNTVYLQMNSLKPEDTAVYYCANYYWGQGTQVTVSS	low polyreactivity
